Value source: paper PMC6130513

biological target: UniProt:P08684
parameter: IC50

IC50 on UniProt:P08684 for C[C@H]1C(=O)CC[C@@H]2[C@]1(C)CC[C@H]1[C@@]2(C)CC[C@@]2(C)[C@@H]3CC(C)(C)CC[C@]3(C)CC[C@]12C is 10.8 µM

====

molecular target: CYP3A4 (Homo sapiens, UniProt P08684); construct: effects of Friedelin on CYP3A4 catalyzed reactions (testosterone 6β-hydroxylation) in pooled HLM; from tissue; host or cells: pooled human liver microsomes; test: Time-dependent inhibition study of CYP3A4 in human liver microsomes; type: in vitro ADME; conditions: human, human liver microsomes; HLM, Friedelin 0–50 μM, preincubation 0–30 min with NADPH; read-out: Kinact/Ki for CYP3A4 inactivation (converted)
Sequence (P08684 whole entry): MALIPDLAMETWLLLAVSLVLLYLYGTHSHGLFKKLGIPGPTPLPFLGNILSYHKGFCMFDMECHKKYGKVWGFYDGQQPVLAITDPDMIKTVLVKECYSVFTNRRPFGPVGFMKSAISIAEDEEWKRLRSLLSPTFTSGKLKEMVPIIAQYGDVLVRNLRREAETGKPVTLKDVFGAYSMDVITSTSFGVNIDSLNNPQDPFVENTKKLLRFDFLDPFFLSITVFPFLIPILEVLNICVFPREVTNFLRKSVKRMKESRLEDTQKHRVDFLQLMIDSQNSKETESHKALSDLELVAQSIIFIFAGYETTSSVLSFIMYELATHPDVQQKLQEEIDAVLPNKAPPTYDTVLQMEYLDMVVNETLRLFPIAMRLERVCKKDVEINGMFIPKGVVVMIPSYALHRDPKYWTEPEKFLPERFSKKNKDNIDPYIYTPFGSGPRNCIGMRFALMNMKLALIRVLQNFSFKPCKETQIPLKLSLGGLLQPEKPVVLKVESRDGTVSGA
parameter: kinact/KI (M⁻¹ s⁻¹)
All answers are understood in M⁻¹ s⁻¹, so give the number only.

Note to self: kinact/KI recorded for C[C@H]1C(=O)CC[C@@H]2[C@]1(C)CC[C@H]1[C@@]2(C)CC[C@@]2(C)[C@@H]3CC(C)(C)CC[C@]3(C)CC[C@]12C [Friedelin] was 80.7

====

target: CYP2E1 (Homo sapiens)
parameter: IC50
Entry format: amount then unit.

IC50 on CYP2E1 (Homo sapiens) for C[C@H]1C(=O)CC[C@@H]2[C@]1(C)CC[C@H]1[C@@]2(C)CC[C@@]2(C)[C@@H]3CC(C)(C)CC[C@]3(C)CC[C@]12C [Friedelin] is 22.5 µM

====

target: CYP2E1 (Homo sapiens, UniProt P05181); construct: effects of Friedelin on CYP2E1 catalyzed reactions (chlorzoxazone 6-hydroxylation) in pooled HLM; from tissue; host or cells: pooled human liver microsomes; test: CYP2E1 inhibition in pooled human liver microsomes (chlorzoxazone 6-hydroxylation); assay type: in vitro ADME; conditions: human, pooled human liver microsomes, pH 7.4, probe chlorzoxazone (6-hydroxylation); Friedelin 100 μM, pooled HLMs, chlorzoxazone 6-hydroxylation; read-out: CYP2E1 activity, % of control activity
Sequence (P05181 whole entry): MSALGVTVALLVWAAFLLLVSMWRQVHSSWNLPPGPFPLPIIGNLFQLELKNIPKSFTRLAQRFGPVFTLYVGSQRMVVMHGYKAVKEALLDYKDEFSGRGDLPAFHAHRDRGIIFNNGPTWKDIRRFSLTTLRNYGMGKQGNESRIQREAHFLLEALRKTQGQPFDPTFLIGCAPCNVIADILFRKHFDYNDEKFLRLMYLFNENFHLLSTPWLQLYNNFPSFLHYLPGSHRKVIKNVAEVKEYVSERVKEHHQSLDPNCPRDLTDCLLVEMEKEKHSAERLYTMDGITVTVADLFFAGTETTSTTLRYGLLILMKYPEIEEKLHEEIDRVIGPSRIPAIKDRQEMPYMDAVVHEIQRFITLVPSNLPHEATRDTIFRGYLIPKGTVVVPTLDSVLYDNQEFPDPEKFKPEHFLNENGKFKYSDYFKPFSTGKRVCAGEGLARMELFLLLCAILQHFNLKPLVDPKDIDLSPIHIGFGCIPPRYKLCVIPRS
parameter: activity at 100 μM
Entry format: amount then unit.

Note to self: activity at 100 μM recorded for C[C@H]1C(=O)CC[C@@H]2[C@]1(C)CC[C@H]1[C@@]2(C)CC[C@@]2(C)[C@@H]3CC(C)(C)CC[C@]3(C)CC[C@]12C was 18.9%
